Taken from patent US20230183187A1.

Below, each of the molecules is paired with its reported pIC50 value.
system: HeLa cells; experiment: IC50 in HeLa cells; assay type: cell-based; details: Homo sapiens
Lab note: report pIC50 as minus log10 of the concentration in molar units, number only.

Sample records with pIC50:
[[record]]
molecule = "CCc1nc(NC(=N)N)nc2cc(OC)ccc12 [EC-265]"
study_target = "HeLa cells"
recorded_value = 4.22

[[record]]
molecule = "Cc1nc(NC(=N)N)nc2c(C)cccc12 [EC-35, 1-(4,8-dimethylquinazolin-2-yl)guanidine]"
study_target = "HeLa cells"
recorded_value = 4.70

[[record]]
molecule = "COc1cccc2c(C)nc(NC(=N)N)nc12 [EC-30]"
study_target = "HeLa cells"
recorded_value = 4.10


// lookup pIC50 for Cc1nc(NC(=N)N)nc2c(C)c(F)ccc12 [EC-288]
4.70

Cool, now Cc1nc(NC(=N)N)nc2cc(Cl)ccc12 [EC-141]
4.40

How about COc1ccc2c(C)nc(NC(=N)N)nc2c1 [EC-18] ?
4.22

// repeat for Cc1nc(NC(=N)N)nc2cc(F)ccc12 [EC-11] and report
4.40

What do you get for Cc1nc(NC(=N)N)nc2c(C)c(Cl)ccc12 [EC-335] ?
5.00

Same question for Cc1nc(NC(=N)N)nc2c(C)c(Br)ccc12 [EC-130] please.
5.00

Also need Cc1nc(NC(=N)N)nc2cc(Br)ccc12 [EC-85] , thanks.
4.70
